Below, each of the molecules is paired with its reported growth at 1 µM value.
- System: SN12C
- assay.remarks: Cytotoxicity against human SN12C cells assessed as cell growth at 1 uM after 48 hrs by sulforhodamine B assay relative to control
- Assay type: functional
- experimental.setup: read-out: Activity
property.name: growth at 1 µM

1. COc1cc(-c2cc(/C=C/C(=O)c3ccc(F)c(F)c3)[nH]n2)cc(OC)c1OC ... 89%
2. COc1ccc(C(=O)/C=C/c2cc(-c3ccc(OC)c(OC)c3)n[nH]2)cc1OC ... 85%
3. COc1cc(C(=O)/C=C/c2cc(-c3ccc4c(c3)OCO4)n[nH]2)cc(OC)c1OC ... 90%
4. COc1ccc(-c2cc(/C=C/C(=O)c3ccc(N)cc3)[nH]n2)cc1OC ... 93%
5. COc1ccc(C(=O)/C=C/c2cc(-c3cc(OC)c(OC)c(OC)c3)n[nH]2)cc1 ... 91%

###

- Test system: RXF 393
- assay.remarks: Cytotoxicity against human RXF393 cells assessed as growth inhibition after 48 hrs by sulforhodamine B assay
- Assay type: functional
- experimental.setup: RXF 393, 48 h
Below, each of the compounds is paired with its reported LC50 (concentration killing 50% of cells) value.
property.name: LC50 (concentration killing 50% of cells)

1) COc1cc2c(cc1OC)C(=O)/C(=C/c1cc(-c3ccc4c(c3)OCO4)n[nH]1)C2 ... 6.62 µM
2) COc1ccc(C(=O)/C=C/c2cc(-c3ccc4c(c3)OCO4)n[nH]2)cc1OC ... 15.9 µM
3) COc1cc(C(=O)/C=C/c2cc(-c3cc(OC)c(OC)c(OC)c3)n[nH]2)cc(OC)c1OC ... 5.68 µM
4) COc1ccc(-c2cc(/C=C/C(=O)c3cc(OC)c(OC)c(OC)c3)[nH]n2)cc1OC ... 6.51 µM

###

- Tested on: OVCAR-8
- assay.remarks: Cytotoxicity against human OVCAR8 cells assessed as cell growth at 10 uM after 48 hrs by sulforhodamine B assay relative to control
- Format: functional
- experimental.setup: OVCAR-8, 48 h, read-out: Activity
Below, each of the compounds is paired with its reported growth at 10 µM value.
property.name: growth at 10 µM (%)

1) COc1ccc(-c2cc(/C=C/C(=O)c3ccc(N)cc3)[nH]n2)cc1 ... 9
2) COc1ccc(-c2cc(/C=C/C(=O)c3ccc(OC)c(OC)c3)[nH]n2)cc1 ... 1
3) COc1cc2c(cc1OC)C(=O)/C(=C/c1cc(-c3ccc4c(c3)OCO4)n[nH]1)C2 ... -89
4) COc1ccc(C(=O)/C=C/c2cc(-c3cc(OC)c(OC)c(OC)c3)n[nH]2)cc1 ... -8
5) COc1cc(-c2cc(/C=C/C(=O)c3ccc4c(c3)OCO4)[nH]n2)cc(OC)c1OC ... 2

###

- Tested on: T47D
- assay.remarks: Cytotoxicity against human T47D cells assessed as growth inhibition after 48 hrs by sulforhodamine B assay
- Format: functional
property.name: GI50 (nM)

1. COc1ccc(-c2cc(/C=C/C(=O)c3ccc(OC)c(OC)c3)[nH]n2)cc1 ... 1600
2. COc1ccc(C(=O)/C=C/c2cc(-c3ccc(OC)c(OC)c3)n[nH]2)cc1OC ... 1360
3. COc1ccc(-c2cc(/C=C/C(=O)c3cc(OC)c(OC)c(OC)c3)[nH]n2)cc1OC ... 1010
4. COc1cc(C(=O)/C=C/c2cc(-c3ccc4c(c3)OCO4)n[nH]2)cc(OC)c1OC ... 1510

###

Below, each of the compounds is paired with its reported growth at 100 µM value.
- System: SK-OV-3
- assay.remarks: Cytotoxicity against human SKOV3 cells assessed as cell growth at 100 uM after 48 hrs by sulforhodamine B assay relative to control
- Type: functional
- experimental.setup: SK-OV-3, 48 h, read-out: Activity
property.name: growth at 100 µM (%)

1) COc1cc(-c2cc(/C=C/C(=O)c3ccc(N)cc3)[nH]n2)cc(OC)c1OC ... -98
2) COc1ccc(-c2cc(/C=C/C(=O)c3ccc(N)cc3)[nH]n2)cc1 ... -68
3) COc1cc(-c2cc(/C=C/C(=O)c3ccc4c(c3)OCO4)[nH]n2)cc(OC)c1OC ... -47
4) COc1cc(-c2cc(/C=C/C(=O)c3ccc(Cl)c(Cl)c3)[nH]n2)cc(OC)c1OC ... -70

###

- Tested on: COLO 205
- assay.remarks: Cytotoxicity against human COLO205 cells assessed as cell growth at 1 uM after 48 hrs by sulforhodamine B assay relative to control
- Format: functional
- experimental.setup: COLO 205, 48 h, read-out: Activity
property.name: growth at 1 µM (%)

1) COc1ccc(-c2cc(/C=C/C(=O)c3ccc(N)cc3)[nH]n2)cc1OC ... 98
2) COc1cc(-c2cc(/C=C/C(=O)c3ccc(F)c(F)c3)[nH]n2)cc(OC)c1OC ... 92
3) COc1ccc(C(=O)/C=C/c2cc(-c3cc(OC)c(OC)c(OC)c3)n[nH]2)cc1 ... 94
4) COc1cc(C(=O)/C=C/c2cc(-c3cc(OC)c(OC)c(OC)c3)n[nH]2)cc(OC)c1OC ... 98
5) COc1cc(C(=O)/C=C/c2cc(-c3ccc4c(c3)OCO4)n[nH]2)cc(OC)c1OC ... 95
6) COc1ccc(-c2cc(/C=C/C(=O)c3cc(OC)c(OC)c(OC)c3)[nH]n2)cc1OC ... 89
7) COc1cc(-c2cc(/C=C/C(=O)c3ccc(N)cc3)[nH]n2)cc(OC)c1OC ... 92
8) COc1ccc(-c2cc(/C=C/C(=O)c3ccc(N)cc3)[nH]n2)cc1 ... 100
9) COc1ccc(C(=O)/C=C/c2cc(-c3cc(OC)c(OC)c(OC)c3)n[nH]2)cc1OC ... 95

###

- Test system: SF-268
- assay.remarks: Cytotoxicity against human SF268 cells assessed as cell growth at 100 uM after 48 hrs by sulforhodamine B assay relative to control
- Assay type: functional
- experimental.setup: SF-268, 48 h, read-out: Activity
Assign met to entries whose growth at 100 µM meets or exceeds -60%; assign not met to the rest.

1. COc1ccc(C(=O)/C=C/c2cc(-c3ccc(OC)c(OC)c3)n[nH]2)cc1OC ... met
2. COc1ccc(-c2cc(/C=C/C(=O)c3ccc(N)cc3)[nH]n2)cc1OC ... not met
3. COc1cc(-c2cc(/C=C/C(=O)c3ccc(F)c(F)c3)[nH]n2)cc(OC)c1OC ... met
4. COc1ccc(C(=O)/C=C/c2cc(-c3cc(OC)c(OC)c(OC)c3)n[nH]2)cc1OC ... not met

###

- System: NCI-H226
- assay.remarks: Cytotoxicity against human NCI-H226 cells assessed as cell growth at 10 uM after 48 hrs by sulforhodamine B assay relative to control
- Format: functional
- experimental.setup: NCI-H226, 48 h, read-out: Activity
// returns not satisfied unless growth at 10 µM is strictly below -60%, in which case satisfied

1. COc1ccc(-c2cc(/C=C/C(=O)c3ccc(OC)c(OC)c3)[nH]n2)cc1 ... satisfied
2. COc1cc(-c2cc(/C=C/C(=O)c3ccc(N)cc3)[nH]n2)cc(OC)c1OC ... satisfied
3. COc1ccc(C(=O)/C=C/c2cc(-c3ccc4c(c3)OCO4)n[nH]2)cc1OC ... not satisfied
4. COc1cc(-c2cc(/C=C/C(=O)c3ccc4c(c3)OCO4)[nH]n2)cc(OC)c1OC ... not satisfied
5. COc1cc(C(=O)/C=C/c2cc(-c3cc(OC)c(OC)c(OC)c3)n[nH]2)cc(OC)c1OC ... satisfied

###

- System: A549
- assay.remarks: Cytotoxicity against human A549/ATCC cells assessed as cell growth at 1 uM after 48 hrs by sulforhodamine B assay relative to control
- Type: functional
- experimental.setup: A549, 48 h, read-out: Activity
property.name: growth at 1 µM

1) COc1ccc(-c2cc(/C=C/C(=O)c3ccc(OC)c(OC)c3)[nH]n2)cc1 ... 77%
2) COc1ccc(-c2cc(/C=C/C(=O)c3ccc(N)cc3)[nH]n2)cc1OC ... 89%
3) COc1cc(-c2cc(/C=C/C(=O)c3ccc(F)c(F)c3)[nH]n2)cc(OC)c1OC ... 82%
4) COc1ccc(C(=O)/C=C/c2cc(-c3cc(OC)c(OC)c(OC)c3)n[nH]2)cc1 ... 86%
5) COc1ccc(C(=O)/C=C/c2cc(-c3ccc(OC)c(OC)c3)n[nH]2)cc1OC ... 77%
6) COc1cc(-c2cc(/C=C/C(=O)c3ccc4c(c3)OCO4)[nH]n2)cc(OC)c1OC ... 92%

###

- Tested on: K562
- assay.remarks: Cytotoxicity against human K562 cells assessed as growth inhibition after 48 hrs by sulforhodamine B assay
- Assay type: functional
- experimental.setup: K562, 48 h
Below, each of the molecules is paired with its reported GI50 value.
property.name: GI50 (nM)

1. COc1ccc(-c2cc(/C=C/C(=O)c3ccc4c(c3)OCO4)[nH]n2)cc1OC ... 610
2. COc1ccc(-c2cc(/C=C/C(=O)c3cc(OC)c(OC)c(OC)c3)[nH]n2)cc1OC ... 730
3. COc1ccc(-c2cc(/C=C/C(=O)c3ccc(N)cc3)[nH]n2)cc1OC ... 2030
4. COc1cc2c(cc1OC)C(=O)/C(=C/c1cc(-c3ccc4c(c3)OCO4)n[nH]1)C2 ... 1590
5. COc1cc(-c2cc(/C=C/C(=O)c3ccc(N)cc3)[nH]n2)cc(OC)c1OC ... 720
6. COc1ccc(-c2cc(/C=C/C(=O)c3ccc(N)cc3)[nH]n2)cc1 ... 1420
7. COc1ccc(-c2cc(/C=C/C(=O)c3ccc(OC)c(OC)c3)[nH]n2)cc1 ... 1280
